Details: 298.15 K; 100 kPa; Liquid
# binarize mass density: threshold 900 kg/m3 inclusive, high side class 1, low side class 0

Solved entries (count: 2):
[
  {
    "compound": "CC(=O)N(C)C [N,N-dimethylethanamide]",
    "qualitative.label": "class 1"
  },
  {
    "compound": "CCCCCCCCCl",
    "qualitative.label": "class 0"
  }
]

# input for lookup
*Q* In plain terms: is recorded mass density at least 900 kg/m3 for CN(C)C=O [dimethylformamide] ?
*A* class 1

* * *

mass density listing for selected molecules.
Conditions: 288.15 K; 2000 kPa; Liquid
± gives the expanded uncertainty stated by the source.
Answer with the figure and its unit, nothing else.

Worked set:
[
  {
    "molecule": "CC(=O)N(C)C [N,N-dimethylethanamide]",
    "mass density": "946.7 ± 0.5 kg/m3"
  },
  {
    "molecule": "CCCCCl",
    "mass density": "893.6 ± 0.3 kg/m3"
  },
  {
    "molecule": "CCCCCCCl",
    "mass density": "884.4 ± 0.7 kg/m3"
  }
]

Attention now shifts to the item below.
In plain terms, "CCCCCCCCCl" has a documented mass density of 878.8 ± 1.3 kg/m3
